- target.of.assay: UniProt:O09106
- test: Binding affinity towards HDAC1 (Histone deacetylase 1) in mouse A20 cells, expressed as binding constant (pKi)
attribute.measured: pKi
Keep in mind that pKi stands for -log10 of concentration in molar terms.

Request: // map CN(C)c1ccc(C(=O)c2cc(/C=C/C(=O)NO)n(C)c2)cc1 to recorded pKi (system: UniProt:O09106)
Result: 5.60

Request: // map Cc1ccc(C(=O)c2cc(/C=C/C(=O)NO)n(C)c2)cc1 to recorded pKi (system: UniProt:O09106)
Result: 5.57

Request: // map Cn1cc(C(=O)c2ccccc2)cc1/C=C/C(=O)NO to recorded pKi (system: UniProt:O09106)
Result: 5.53

---

- target.of.assay: Histone deacetylase 1 (Mus musculus)
- Sequence (O09106 whole entry): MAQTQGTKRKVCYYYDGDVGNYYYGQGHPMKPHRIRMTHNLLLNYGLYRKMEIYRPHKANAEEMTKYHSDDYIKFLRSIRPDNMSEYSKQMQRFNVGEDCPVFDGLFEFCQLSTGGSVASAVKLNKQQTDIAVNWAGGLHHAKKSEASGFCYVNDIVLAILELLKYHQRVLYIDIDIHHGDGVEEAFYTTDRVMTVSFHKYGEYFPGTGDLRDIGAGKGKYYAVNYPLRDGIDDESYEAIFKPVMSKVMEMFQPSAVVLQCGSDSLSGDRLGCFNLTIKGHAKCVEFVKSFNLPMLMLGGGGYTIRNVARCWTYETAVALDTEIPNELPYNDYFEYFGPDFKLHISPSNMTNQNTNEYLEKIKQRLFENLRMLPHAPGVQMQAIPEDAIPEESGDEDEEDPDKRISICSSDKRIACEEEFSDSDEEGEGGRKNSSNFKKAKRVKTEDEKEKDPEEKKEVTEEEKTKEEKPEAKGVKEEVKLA
- test: In vitro for anti-HDAC1 (Histone deacetylase 1) activity in mouse A20 cells
attribute.measured: IC50 (µM)
Lab book: enter the figure in µM, no units written.

Request: Query (compound): Cc1ccc(C(=O)c2cc(/C=C/C(=O)NO)n(C)c2)cc1 ; field requested: IC50
Result: 4.5

Request: Query (compound): Cn1cc(C(=O)c2ccccc2)cc1/C=C/C(=O)NO ; field requested: IC50
Result: 4.9

Request: Query (compound): CN(C)c1ccc(C(=O)c2cc(/C=C/C(=O)NO)n(C)c2)cc1 ; field requested: IC50
Result: 4.2
